Measurement record for Tyrosine-protein kinase receptor UFO (Homo sapiens, UniProt P30530); quantity recorded: IC50.
Answers are plain numbers, in nM.

[
  {
    "molecule": "CN1C(=O)[C@@H](N2CCc3cn(CC4CCS(=O)(=O)CC4)nc3C2=O)COc2ccccc21 [TP-030n]",
    "IC50 [nM]": 1000
  }
]

Now turn to the next molecule.
[Q] Item CN1C(=O)[C@@H](N2CCc3cn(Cc4ccccc4)nc3C2=O)COc2ccccc21 [TP-030-1] has what recorded IC50?
[A] 1000

----------
Kindly state pIC50 for each of the entries shown.
Molecular target: Bromodomain-containing protein 4 (Homo sapiens, UniProt O60885)
Experiment: BRD4(BRD4LGRC) Takeda global kinase panel
One number for each entry, as −log10 of the molar value.

Batch request: pIC50 per item, same order as input.
1. CN1C(=O)[C@@H](N2CCc3cn(Cc4ccccc4)nc3C2=O)COc2ccccc21 [TP-030-1]
2. CN1C(=O)[C@@H](N2CCc3cn(CC4CCS(=O)(=O)CC4)nc3C2=O)COc2ccccc21 [TP-030n]

[A]
6.00
6.00

----------
Target: Misshapen-like kinase 1 (Homo sapiens, UniProt Q8N4C8)
Sequence (Q8N4C8 whole entry): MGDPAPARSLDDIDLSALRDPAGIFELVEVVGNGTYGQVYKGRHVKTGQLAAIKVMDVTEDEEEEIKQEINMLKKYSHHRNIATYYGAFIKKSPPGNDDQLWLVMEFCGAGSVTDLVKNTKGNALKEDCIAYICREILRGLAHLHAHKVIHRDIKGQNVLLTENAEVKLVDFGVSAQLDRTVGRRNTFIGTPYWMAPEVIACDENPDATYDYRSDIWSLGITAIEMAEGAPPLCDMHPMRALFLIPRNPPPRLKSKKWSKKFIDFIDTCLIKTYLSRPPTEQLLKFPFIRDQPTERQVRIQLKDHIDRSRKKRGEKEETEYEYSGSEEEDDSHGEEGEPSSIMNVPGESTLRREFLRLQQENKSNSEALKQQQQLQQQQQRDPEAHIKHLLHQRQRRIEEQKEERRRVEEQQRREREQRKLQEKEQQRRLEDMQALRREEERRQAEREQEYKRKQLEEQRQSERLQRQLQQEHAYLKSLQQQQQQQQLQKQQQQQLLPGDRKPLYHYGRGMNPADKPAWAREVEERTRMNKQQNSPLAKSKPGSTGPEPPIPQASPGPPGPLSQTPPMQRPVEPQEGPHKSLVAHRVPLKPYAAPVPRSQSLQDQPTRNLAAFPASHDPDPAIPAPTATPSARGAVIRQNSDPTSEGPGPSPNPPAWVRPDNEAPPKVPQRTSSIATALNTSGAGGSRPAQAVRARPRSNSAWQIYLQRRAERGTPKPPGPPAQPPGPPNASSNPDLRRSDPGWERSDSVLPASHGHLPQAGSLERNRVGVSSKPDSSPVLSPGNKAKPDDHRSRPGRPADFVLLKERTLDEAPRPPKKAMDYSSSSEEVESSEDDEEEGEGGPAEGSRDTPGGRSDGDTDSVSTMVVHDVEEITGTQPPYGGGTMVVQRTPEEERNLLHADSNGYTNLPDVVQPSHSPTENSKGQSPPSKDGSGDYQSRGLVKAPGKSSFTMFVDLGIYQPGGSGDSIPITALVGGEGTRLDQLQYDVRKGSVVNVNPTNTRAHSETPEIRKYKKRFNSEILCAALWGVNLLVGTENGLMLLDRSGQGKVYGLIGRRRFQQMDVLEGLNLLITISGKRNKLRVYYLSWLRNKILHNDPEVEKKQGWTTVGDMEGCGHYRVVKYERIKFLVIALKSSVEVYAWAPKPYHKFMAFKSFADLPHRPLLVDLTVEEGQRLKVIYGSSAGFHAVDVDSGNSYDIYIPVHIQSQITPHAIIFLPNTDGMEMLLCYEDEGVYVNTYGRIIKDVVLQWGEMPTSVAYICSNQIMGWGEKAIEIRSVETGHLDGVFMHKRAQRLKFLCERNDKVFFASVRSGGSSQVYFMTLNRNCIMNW
quantity: pIC50
Numbers only, as −log10 of the molar value.

[Q] Item CN1C(=O)[C@@H](N2CCc3cn(CC4CCS(=O)(=O)CC4)nc3C2=O)COc2ccccc21 [TP-030n] has what recorded pIC50?
[A] 6.00

----------
Measurement record for Receptor tyrosine-protein kinase erbB-4 (Homo sapiens, UniProt Q15303); quantity recorded: pIC50.
Give bare numbers, as −log10 of the molar value.

Batch request: pIC50 per item, same order as input.
1. CN1C(=O)[C@@H](N2CCc3cn(CC4CCS(=O)(=O)CC4)nc3C2=O)COc2ccccc21 [TP-030n]
2. CN1C(=O)[C@@H](N2CCc3cn(Cc4ccccc4)nc3C2=O)COc2ccccc21 [TP-030-1]

[A]
1. 6.00
2. 6.00

The measured values listed here are drawn from ChEMBL document CHEMBL4507327.
